Molecular target: PKC β II (Homo sapiens, UniProt P05771)
Construct: purchased CALBIOCHEM
Sequence (P05771 other isoform, or with tags, fused parts or gaps): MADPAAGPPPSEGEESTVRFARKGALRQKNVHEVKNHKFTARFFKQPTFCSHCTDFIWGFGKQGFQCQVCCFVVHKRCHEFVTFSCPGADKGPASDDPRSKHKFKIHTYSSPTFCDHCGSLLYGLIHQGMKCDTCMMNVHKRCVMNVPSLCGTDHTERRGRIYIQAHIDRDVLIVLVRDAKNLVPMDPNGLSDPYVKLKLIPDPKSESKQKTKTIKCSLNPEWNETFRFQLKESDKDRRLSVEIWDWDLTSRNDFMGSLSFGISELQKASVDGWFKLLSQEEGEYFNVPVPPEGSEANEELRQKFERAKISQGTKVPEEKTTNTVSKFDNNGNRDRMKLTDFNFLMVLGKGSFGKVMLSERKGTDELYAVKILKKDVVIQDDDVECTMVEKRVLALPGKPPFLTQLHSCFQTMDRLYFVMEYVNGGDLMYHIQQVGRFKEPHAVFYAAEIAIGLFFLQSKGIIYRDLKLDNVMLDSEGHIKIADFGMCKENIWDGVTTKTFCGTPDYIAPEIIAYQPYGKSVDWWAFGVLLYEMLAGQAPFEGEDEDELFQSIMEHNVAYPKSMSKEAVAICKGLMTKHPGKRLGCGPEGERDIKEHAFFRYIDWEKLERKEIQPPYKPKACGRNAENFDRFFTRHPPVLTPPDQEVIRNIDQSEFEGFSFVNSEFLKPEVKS
Test: PKC enzyme assay (BIOTRAK Protein kinase C enzyme assay system, 32P-ATP phosphorylation of peptide […])
Format: biochemical
Conditions: IC50 PKC α / IC50 PKC β II
Here, each record is paired with measured Ratio α/β data.
Answer with a number only.

Reference set, count: 6
1) O=C1NC(=O)C(c2c3n(c4ccccc24)C[C@H](CN2CCOCC2)C3)=C1Nc1ccccc1    109
2) CCN(C)C[C@H]1Cc2c(C3=C(Nc4ccccc4)C(=O)NC3=O)c3ccccc3n2C1    96
3) NC(=O)c1cccc(NC2=C(c3c4n(c5ccccc35)C[C@H](CO)CC4)C(=O)NC2=O)c1    112
4) Cc1cncn1CCCn1cc(C2=C(Nc3cccc(Cl)c3)C(=O)NC2=O)c2ccccc21    45
5) O=C1NC(=O)C(c2c[nH]c3ccccc23)=C1Nc1cccc(F)c1    29
6) O=C1NC(=O)C(c2c3n(c4ccccc24)CC(CN2CCC(O)CC2)C3)=C1Nc1ccccc1 (centres unmarked)    64

Give me measured Ratio α/β, please, for this compound: COC[C@H]1Cc2c(C3=C(Nc4ccc(F)cc4)C(=O)NC3=O)c3ccccc3n2C1
77

Identify measured Ratio α/β associated with O=C1NC(=O)C(c2cn(CCCCCn3ccnc3)c3ccccc23)=C1Nc1ccccc1
44

====

Below, each of the molecules is paired with its reported Ratio α/β value.
Target: PKC β II (Homo sapiens, UniProt P05771)
Construct: purchased CALBIOCHEM
Experiment: PKC enzyme assay (BIOTRAK Protein kinase C enzyme assay system, 32P-ATP phosphorylation of peptide […])
Format: biochemical
Conditions: IC50 PKC α / IC50 PKC β II

Answered cases to consult:
1) O=C1NC(=O)C(c2cn(CCCN3CCOCC3)c3ccccc23)=C1Nc1ccccc1 [Example 2-19]    72
2) CCNCC1Cc2c(C3=C(Nc4ccccc4)C(=O)NC3=O)c3ccccc3n2C1 (centres unmarked) [Example 4-31]    64
3) O=C1NC(=O)C(c2cn(CCCn3ccnc3)c3ccccc23)=C1Nc1ccc(Cl)cc1 [Example 2-64]    37
4) CN(C)C1CCN(CCCn2cc(C3=C(Nc4ccccc4)C(=O)NC3=O)c3ccccc32)CC1 [Example 2-34]    57
5) Cc1nccn1CCn1cc(C2=C(Nc3ccccc3)C(=O)NC2=O)c2ccccc21 [Example 2-63]    29
6) O=C1NC(=O)C(c2c3n(c4ccccc24)C[C@H](CO)C3)=C1Nc1ccccc1 [Example 4-58]    73

Give recorded Ratio α/β. O=C1NC(=O)C(c2cn(CC(O)CO)c3ccccc23)=C1Nc1ccccc1 (centres unmarked) [Example 2-44]
31

Return Ratio α/β (reported value) for this molecule: O=C1NC(=O)C(c2cn(CCCn3ccnc3)c3ccccc23)=C1Nc1ccc(Br)cc1 [Example 2-66]
34

====

Target: PKC α (Homo sapiens, UniProt P17252)
Construct: purchased CALBIOCHEM
Assay: PKC enzyme assay (BIOTRAK Protein kinase C enzyme assay system, 32P-ATP phosphorylation of peptide […])
Format: biochemical
Conditions: read-out: Inhibition of PKC activity IC50 PKC α; Protein Kinase C, Human Recombinant; test substance 1 nM-10 µM; 37°C, 15 minutes
Procedure: As the reagent for enzyme assay, BIOTRAK Protein kinase C enzyme assay system (hereinafter the system, Amersham), and as the PKC enzyme standard product, Protein Kinase C, Human Recombinant (CALBIOCHEM) were purchased and used in the assay. […] The ratio of the radioactivity of the addition of the test substance to the addition of DMSO was determined, and IC50 was calculated from inhibition at each concentration.
test.readout: pIC50
Please express pIC50 as -log10 of the molar concentration.

1. CNC[C@H]1Cc2c(C3=C(Nc4ccccc4)C(=O)NC3=O)c3ccccc3n2C1    6.80
2. O=C1NC(=O)C(c2c3n(c4ccccc24)C[C@@H](CN2CCOCC2)C3)=C1Nc1ccccc1    5.35

Using known records, supply pIC50 for O=C1NC(=O)C(c2c3n(c4ccccc24)C[C@@H](CO)C3)=C1Nc1ccc(F)cc1
6.47

Provide pIC50 value for the following molecule: CCN(C)C[C@H]1Cc2c(C3=C(Nc4ccc(OC)cc4)C(=O)NC3=O)c3ccccc3n2C1
5.96

====

Molecular target: PKC α (Homo sapiens)
Construct: purchased CALBIOCHEM
Experiment: PKC enzyme assay (BIOTRAK Protein kinase C enzyme assay system, 32P-ATP phosphorylation of peptide […])
Format: biochemical
pIC50: −log10 of the molar value.
Classify by measured pIC50: Criterion met if it is equal to or exceeds 6, Criterion not met if it is smaller.

For orientation, consider the following solved cases.
1. O=C1NC(=O)C(c2c3n(c4ccccc24)CCC(Cn2ccnc2)C3)=C1Nc1ccccc1 (centres unmarked)    Criterion not met
2. CCN(C)C[C@@H]1CCc2c(C3=C(Nc4ccccc4)C(=O)NC3=O)c3ccccc3n2C1    Criterion met

Consider the additional compound presented here.
Textbook exercise: given the entry COC[C@H]1Cc2c(C3=C(Nc4ccccc4)C(=O)NC3=O)c3ccccc3n2C1 , state whether its pIC50 is greater than or equal to 6.
Criterion not met

====

Target: PKC β II (Homo sapiens)
Construct: purchased CALBIOCHEM
Assay: PKC enzyme assay (BIOTRAK Protein kinase C enzyme assay system, 32P-ATP phosphorylation of peptide […])
Format: biochemical
Details: IC50 PKC α / IC50 PKC β II
Consider the following compounds and their measured Ratio α/β readings.
# respond with the number and nothing more

Examples with their reported Ratio α/β follow.
1) O=C1NC(=O)C(c2c3n(c4ccccc24)CC[C@H](CN2CCSCC2)C3)=C1Nc1ccccc1    131
2) CCN(C)C[C@H]1CCn2c(c(C3=C(Nc4ccccc4)C(=O)NC3=O)c3ccccc32)C1    68
3) Cc1cccc(NC2=C(c3c[nH]c4ccccc34)C(=O)NC2=O)c1    33
4) CC(=O)OCCn1cc(C2=C(Nc3ccccc3)C(=O)NC2=O)c2ccccc21    57
5) CCN(CCCn1cc(C2=C(Nc3ccccc3)C(=O)NC2=O)c2ccccc21)Cc1ccncc1    41

Dear colleague, please send me the reported Ratio α/β for O=C1NC(=O)C(c2cn(CCCO)c3ccccc23)=C1Nc1ccccc1 when you can.
54

Give recorded Ratio α/β. CNC[C@H]1Cc2c(C3=C(Nc4ccccc4)C(=O)NC3=O)c3ccccc3n2C1
159

====

Attribute: log10 of IC50
Molecular target: PKC β II (Homo sapiens)
Construct: purchased CALBIOCHEM
Assay: PKC enzyme assay (BIOTRAK Protein kinase C enzyme assay system, 32P-ATP phosphorylation of peptide […])
Assay type: biochemical
Details: read-out: Inhibition of PKC activity IC50 PKC β II; Protein Kinase C, Human Recombinant; test substance 1 nM-10 µM; 37°C, 15 minutes
Transform log10 | Measure IC50 | Unit nM

These recorded examples may help you get a feel for the data.
1. O=C1NC(=O)C(c2c3n(c4ccccc24)CC[C@H](CN2CCSCC2)C3)=C1Nc1ccccc1    0.70
2. CCN(C)C[C@H]1Cc2c(C3=C(Nc4ccc(OC)cc4)C(=O)NC3=O)c3ccccc3n2C1    1.20
3. CCN(CC)C[C@H]1CCc2c(C3=C(Nc4ccccc4)C(=O)NC3=O)c3ccccc3n2C1    1.00
4. NC(=O)c1cccc(NC2=C(c3c4n(c5ccccc35)C[C@H](CO)CC4)C(=O)NC2=O)c1    1.95
5. O=C1NC(=O)C(c2c3n(c4ccccc24)C[C@@H](CN2CCOCC2)C3)=C1Nc1ccccc1    1.61
6. O=C1NC(=O)C(c2c3n(c4ccccc24)CC(CN2CCSCC2)C3)=C1Nc1ccccc1 (stereo not shown)    1.40
7. COc1ccc(NC2=C(c3c4n(c5ccccc35)C[C@@H](CO)C4)C(=O)NC2=O)cc1    1.20
8. CCN(C)C[C@H]1CCn2c(c(C3=C(Nc4ccccc4)C(=O)NC3=O)c3ccccc32)C1    0.48
9. O=C1NC(=O)C(c2c3n(c4ccccc24)C[C@@H](CO)C3)=C1Nc1ccc(F)cc1    0.60
10. O=C1NC(=O)C(c2c3n(c4ccccc24)C[C@H](CO)C=C3)=C1Nc1ccccc1    0.85

Answer with the recorded log10 of IC50 for the molecule listed here: O=C1NC(=O)C(c2c3n(c4ccccc24)C[C@H](CN2CCOCC2)CC3)=C1Nc1ccccc1
1.34

Supply recorded log10 of IC50 for O=C1NC(=O)C(c2c3n(c4ccccc24)CC[C@H](CN2CCOCC2)C3)=C1Nc1ccccc1 here.
0.95

# return recorded log10 of IC50 for input CCN(C)C[C@@H]1CCc2c(C3=C(Nc4ccc5c(c4)OCO5)C(=O)NC3=O)c3ccccc3n2C1
1.52

Specify log10 of IC50 for O=C1NC(=O)C(c2c3n(c4ccccc24)CC(CN2CCC(O)CC2)C3)=C1Nc1ccccc1 (stereo not shown) and stop.
1.11

Report measured log10 of IC50; entry is CNC[C@H]1Cc2c(C3=C(Nc4ccccc4)C(=O)NC3=O)c3ccccc3n2C1
0.00

For the molecule O=C1NC(=O)C(c2c3n(c4ccccc24)CCCC(Cn2ccnc2)C3)=C1Nc1ccccc1 (stereo not shown) , report log10 of IC50.
1.61
